Origin of measurements: PubChem BioAssay AID434951

molecular target: Hypoxia-inducible factor 1-alpha (Homo sapiens) (UniProt Q16665); assay: activators of HIF1alpha nuclear accumulation, confirmation, imaging, fluorescence, U2OS GFP-HIF1alpha (AID 434951); conditions: U2OS GFP-HIF1alpha nuclear intensity, high-content imaging
Sequence (Q16665 whole entry, looked up): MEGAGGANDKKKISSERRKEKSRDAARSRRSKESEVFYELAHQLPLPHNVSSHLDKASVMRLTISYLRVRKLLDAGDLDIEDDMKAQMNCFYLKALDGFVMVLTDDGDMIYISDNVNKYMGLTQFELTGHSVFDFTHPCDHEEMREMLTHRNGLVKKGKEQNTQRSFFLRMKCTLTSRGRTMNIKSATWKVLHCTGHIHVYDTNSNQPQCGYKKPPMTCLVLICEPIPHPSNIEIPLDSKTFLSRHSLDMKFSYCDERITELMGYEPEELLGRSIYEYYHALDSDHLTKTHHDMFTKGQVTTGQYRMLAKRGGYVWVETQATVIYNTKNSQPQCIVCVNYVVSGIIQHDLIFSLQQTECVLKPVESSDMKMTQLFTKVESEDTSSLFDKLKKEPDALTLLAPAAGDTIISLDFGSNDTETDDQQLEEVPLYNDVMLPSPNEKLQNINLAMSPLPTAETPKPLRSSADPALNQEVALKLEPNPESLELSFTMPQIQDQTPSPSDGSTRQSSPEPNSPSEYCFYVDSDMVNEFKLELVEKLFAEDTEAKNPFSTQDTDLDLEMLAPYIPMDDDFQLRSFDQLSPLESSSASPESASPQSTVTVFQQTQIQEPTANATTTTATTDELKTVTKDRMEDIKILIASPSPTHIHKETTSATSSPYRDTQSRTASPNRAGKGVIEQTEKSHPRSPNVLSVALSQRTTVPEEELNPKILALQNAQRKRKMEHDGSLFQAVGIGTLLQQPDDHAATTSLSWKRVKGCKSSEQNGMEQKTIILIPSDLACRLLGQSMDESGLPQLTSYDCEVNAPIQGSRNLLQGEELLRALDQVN
Calls of active or inactive are those of the source.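 Rule for the calls: active = a fitted half-maximal concentration EC50 for the rise in nuclear signal no higher than ten times the top dose tested; inconclusive = flat fit with activity between 30% and 70%, or unusable fit; inactive = EC50 beyond ten times the top dose.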
Labels: active, inactive

compound | discrete_label
C[C@@H](C(=O)Nc1ccc2c(c1)OCCO2)n1c(=O)[nH]c2ccccc2c1=O | inactive
CCOC(=O)/C(C#N)=C/C=C1\C=Cc2ccccc2N1CC | inactive
CCCc1[nH]nc2c1C(c1ccoc1)C(C#N)=C(N)O2 (centres undefined) | inactive
CCC(C)c1ccc2oc(-c3ccc(NC(=O)Cn4cnc5c(=O)n(C)c(=O)n(C)c54)cc3)nc2c1 (centres undefined) | active

----------
Listed below: EC50 values for each entry.
biological target: Hypoxia-inducible factor 1-alpha (Homo sapiens); assay: activators of HIF1alpha nuclear accumulation, confirmation, imaging, fluorescence, U2OS GFP-HIF1alpha (AID 434951); conditions: U2OS GFP-HIF1alpha nuclear intensity, high-content imaging
Activity calls are given as the source filed them.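 How the source made its calls: active means a fitted half-maximal concentration EC50 for the rise in nuclear signal no higher than ten times the top dose tested; inconclusive means flat fit with activity between 30% and 70%, or unusable fit; inactive means EC50 beyond ten times the top dose.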
measured_parameter: EC50

compound | measured_parameter | value
Cc1ccc2nc(SCC(=O)c3ccccc3)nc(=O)n2c1 | EC50 | > 35 µM (inactive)
O=C(Cn1nc(-c2ccccc2Cl)ccc1=O)Nc1ccccc1-c1ccccc1 | EC50 | > 35 µM (inactive)
Oc1ccccc1C(Nc1nccs1)c1ccc2cccnc2c1O (configuration not stated) | EC50 | 6.57 µM
CCCOc1cccc(C2C(C(=O)c3ccco3)=C(O)C(=O)N2CCCn2ccnc2)c1 (configuration not stated) | EC50 | > 35 µM (inactive)
Cc1ccc(OC(C)C(=O)N2CC(=O)Nc3ccccc32)cc1 (configuration not stated) | EC50 | > 35 µM (inactive)
FC(F)(F)c1ccc(-c2nc(=S)[nH][nH]2)cc1 | EC50 | > 35 µM (inactive)
O=C(C1CCCN(Cc2ccccc2F)C1)N1CCc2ccccc2C1 (configuration not stated) | EC50 | > 35 µM (inactive)

----------
target: Hypoxia-inducible factor 1-alpha (Homo sapiens); test: activators of HIF1alpha nuclear accumulation, confirmation, imaging, fluorescence, U2OS GFP-HIF1alpha (AID 434951); conditions: U2OS GFP-HIF1alpha nuclear intensity, high-content imaging
Active and inactive are the calls of the source.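 The calls were made as follows: active = a fitted half-maximal concentration EC50 for the rise in nuclear signal no higher than ten times the top dose tested; inconclusive = flat fit with activity between 30% and 70%, or unusable fit; inactive = EC50 beyond ten times the top dose.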
Possible outcomes: true (1) = active, false (0) = inactive

compound | discrete_label
COc1ccc(C(NC(C)=O)c2ccc3cccnc3c2O)c(OC)c1 (stereo unspecified) | true (1)
CC(C)C(=O)N1CCN(c2nc3ccc(Cl)cc3s2)CC1 | false (0)
CC(C)COc1cccc(C(=O)NNC(=O)C2COc3ccccc3O2)c1 (stereo unspecified) | false (0)
Cc1ccc(/C=N/NC(=O)CN2CCN(Cc3ccccc3Cl)CC2)o1 | false (0)
COc1ccc(O)c(/C=N/NC(=S)Nc2cccc(S(=O)(=O)N(C)C)c2)c1 | false (0)
O=C(O)c1ccccc1Nc1ccc([N+](=O)[O-])cc1C(=O)O | false (0)
Cc1ccccc1-n1c(=O)n(Cc2ccc(C(=O)O)cc2)c(=O)c2[nH]cnc21 | false (0)
COCCN=c1scc(-c2cc(OC)c(OC)c(OC)c2)n1/N=C/c1c(C)[nH]c2ccccc12 | false (0)
Cc1ccc(N2CC(=O)Nc3c(sc4nc(C)cc(C)c34)C2=O)cc1 | false (0)
Oc1cccc(/C=N/c2c(-c3ccco3)nc3ccccn23)c1 | false (0)
CC(C)[C@H](NC(=O)c1ccccc1Cl)C(=O)Nc1nc(-c2ccccn2)cs1 | true (1)
